The origin of these recorded values is patent US20210292393A1.

Documented kon across a set of binders
Biological target: SARS-CoV-2 spike (S) protein (SARS-CoV-2, UniProt P0DTC2 14-1208)

binder | kon, M⁻¹ s⁻¹
antibody 358 (antibody, V domains shown) VH: QVQLVESGGGVVQPGRSLRLSCAASGFNLNSYAMHWVRQASGKGLEWVSLMSYDGSIKYYADSVKGRFTVSGDNSRNTLFLQMNSLRPDDSALYYCVRGGVSGPNSFDLWGQGTTVTVSS VL: DVVMTQSPLSLPVTLGQPASISCRSSQSLVYSDGSTYVNWFQQRPGQSPRRLIYKVSNRDSGVPDRFSGSGSGTDFALKISRVEAEDVGVYYCMQGTHWPVTFGQGTKVEIK | 289000
antibody 357 (antibody, V domains shown) VH: QVQLVQSGAEVKKPGSSVKVSCKASGGTFSSYAISWVRQAPGQGLEWMGRIIPILGIANYAQKFQGRVTITADKSTSTAYMELSSLRSEDTAVYYCARGPIAVAGIGPWFDPWGQGTLVTVSS VL: QSVLTQPPSVSAAPGQKVTISCSGSSSNIGNNYVSWYQQLPGTAPKLLIYDNNKRPSGIPDRFSGSKSGTSATLGITGLQTGDEADYYCGTWDSSLSAVVFGGGTKLTVL | 78000
antibody 330 (antibody, V domains shown) VH: QVQLVESGGGVVQPGRSLRLSCAASGFTFSSYAMHWVRQAPGKGLEWVAVISYDGSNKYYADSVKGRFTISRDNSKNTLYLQMNSLRAEDTAVYYCARDFQYYDFWSGYLTVSSPTSYYGMDVWGQGTTVTVSS VL: NFMLTQPHSVSESPGKTVTISCTGSSGSIASNYVQWYQQRPGSAPTTVIYEDNQRPSGVPDRFSGSIDSSSNSASLTISGLKTEDEADYYCQSYDSSNVVFGGGTKLTVL | 76500
antibody 261 (antibody, V domains shown) VH: QVQLVESGGGVVQPGRSLRLSCAASGFTFSSYAMHWVRQAPGKGLEWVAVISYDGSNKYYADSVKGRFTISRDNSKNTLYLQMNSLRAEDTAVYYCARDEAYYDILTGYINAPKNYYYYGMDVWGQGTTVTVSS VL: DIQMTQSPSSLSASVGDRVTITCRASQGIRNDLGWYQQKPGKAPKRLIYAASSLQSGVPSRFSGSGSGTEFTLTISSLQPEDFATYYCLQHNSYPFTFGPGTKVDIK | 129000
antibody 338 (antibody, V domains shown) VH: QVQLQESGPGLVKPSETLSLTCAVSGYSISSDYYWGWIRQPPGKGLEWIGSIYHSGSTYYNPSLKSRVTISIDTSKNQFSLKLSSVTAADTAVYYCARDPGNYDILTGIFDYWGQGTLVTVSS VL: QSALTQPASVSGSPGQSITISCTGTSSDVGVYNYVSWYQQHPGKAPKLMIYDVTNRPSGVSNRFSGSKSGNTASLTISGLQAEDEADYYCSSYTSSSTLAVYVFGTGTKVTVL | 50200
